The reported measurements were obtained from patent US8299048B2.

Here the recorded Ki is given for each entry.
targetEntity: glucocorticoid receptor (Homo sapiens, UniProt P04150)
Construct: endogenous in cells
Sequence (P04150 whole entry): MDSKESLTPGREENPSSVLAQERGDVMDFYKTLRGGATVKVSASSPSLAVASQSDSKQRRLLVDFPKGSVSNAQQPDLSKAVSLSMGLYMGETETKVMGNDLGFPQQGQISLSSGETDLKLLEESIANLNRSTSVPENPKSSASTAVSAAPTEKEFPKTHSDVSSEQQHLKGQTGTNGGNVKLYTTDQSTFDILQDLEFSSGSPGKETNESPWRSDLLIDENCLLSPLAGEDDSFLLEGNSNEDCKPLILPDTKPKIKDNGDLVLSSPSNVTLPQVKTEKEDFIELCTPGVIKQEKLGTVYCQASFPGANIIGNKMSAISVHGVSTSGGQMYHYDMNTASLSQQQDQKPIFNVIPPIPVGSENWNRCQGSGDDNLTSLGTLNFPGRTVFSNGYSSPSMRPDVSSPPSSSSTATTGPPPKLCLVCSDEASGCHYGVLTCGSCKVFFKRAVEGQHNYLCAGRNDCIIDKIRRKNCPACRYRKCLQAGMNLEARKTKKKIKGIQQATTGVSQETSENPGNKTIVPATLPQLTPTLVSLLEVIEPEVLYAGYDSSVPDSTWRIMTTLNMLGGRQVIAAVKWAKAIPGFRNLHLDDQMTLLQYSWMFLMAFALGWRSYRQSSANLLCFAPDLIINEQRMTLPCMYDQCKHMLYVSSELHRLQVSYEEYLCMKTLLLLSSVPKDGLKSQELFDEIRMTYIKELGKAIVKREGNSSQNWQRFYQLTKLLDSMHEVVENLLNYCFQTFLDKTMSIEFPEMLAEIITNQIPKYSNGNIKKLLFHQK
protocolDescription: Ligand binding assay (GR BIND)
Enter your answer as a number in nM; do not include the unit.

# compound, targetEntity, Ki [nM]
rows = [
    ("C[C@]12Cc3cnn(-c4ccc(F)cc4)c3C=C1CC[C@@H]2CN(CCc1ccccc1O)S(=O)(=O)Cc1cccnc1 [Example 131]", "glucocorticoid receptor (Homo sapiens, UniProt P04150)", 1.7),
    ("C[C@]12Cc3cnn(-c4ccc(F)cc4)c3C=C1CC[C@@H]2CN(CCc1ccccc1F)S(=O)(=O)c1ccccc1F [Example 86]", "glucocorticoid receptor (Homo sapiens, UniProt P04150)", 4.2),
    ("COc1ccccc1CCN(C[C@H]1CCC2=Cc3c(cnn3-c3ccccc3)C[C@@]21C)S(=O)(=O)CC(F)(F)F [Example 139]", "glucocorticoid receptor (Homo sapiens, UniProt P04150)", 1.5),
    ("C[C@]12Cc3cnn(-c4ccc(F)cc4)c3C=C1CC[C@@H]2CN(CCO)S(=O)(=O)c1ccccc1C#N [Example 78]", "glucocorticoid receptor (Homo sapiens, UniProt P04150)", 2.3),
    ("CC(C)CS(=O)(=O)N(CCc1ccccc1F)C[C@H]1CCC2=Cc3c(cnn3-c3ccc(F)cc3)C[C@@]21C [Example 103]", "glucocorticoid receptor (Homo sapiens, UniProt P04150)", 1.7),
]

Param item: C[C@]12Cc3cnn(-c4ccc(F)cc4)c3C=C1CC[C@@H]2CN(CC1CCCO1)S(=O)(=O)c1ccc(C(N)=O)cc1 (stereo partly shown) [Example 191] ; param system: glucocorticoid receptor (Homo sapiens, UniProt P04150); output Ki: 2

Param item: C[C@]12Cc3cnn(-c4ccc(F)cc4)c3C=C1CC[C@@H]2CN(CC#N)S(=O)(=O)c1cccc(Cl)c1Cl [Example 26] ; param system: glucocorticoid receptor (Homo sapiens, UniProt P04150); output Ki: 9.7

Param item: C[C@@H](O)CN(C[C@H]1CCC2=Cc3c(cnn3-c3ccc(F)cc3)C[C@@]21C)S(=O)(=O)Cc1ccccc1C(N)=O [Example 184] ; param system: glucocorticoid receptor (Homo sapiens, UniProt P04150); output Ki: 9.6

Param item: Cc1nn(C)c(Cl)c1S(=O)(=O)N(CCO)C[C@H]1CCC2=Cc3c(cnn3-c3ccc(F)cc3)C[C@@]21C [Example 83] ; param system: glucocorticoid receptor (Homo sapiens, UniProt P04150); output Ki: 3.7

Param item: C[C@@H](CN(C[C@H]1CCC2=Cc3c(cnn3-c3ccc(F)cc3)C[C@@]21C)S(=O)(=O)CC(F)(F)F)OS(=O)(=O)CC(F)(F)F [Example 114] ; param system: glucocorticoid receptor (Homo sapiens, UniProt P04150); output Ki: 0.8

Param item: C[C@]12Cc3cnn(-c4ccc(F)cc4)c3C=C1CC[C@@H]2CN(CC1CC1)S(=O)(=O)c1ccc(-c2ccccc2)cc1 [Example 10] ; param system: glucocorticoid receptor (Homo sapiens, UniProt P04150); output Ki: 0.7

Param item: COC(=O)c1ccccc1S(=O)(=O)N(C[C@H]1CCC2=Cc3c(cnn3-c3ccc(F)cc3)C[C@@]21C)C[C@@H](C)O [Example 186] ; param system: glucocorticoid receptor (Homo sapiens, UniProt P04150); output Ki: 1.9

Param item: C[C@]12Cc3cnn(-c4ccc(F)cc4)c3C=C1CC[C@@H]2CN(CC#N)S(=O)(=O)c1cc(F)cc(F)c1 [Example 44] ; param system: glucocorticoid receptor (Homo sapiens, UniProt P04150); output Ki: 1.6

Param item: C[C@]12Cc3cnn(-c4ccc(F)cc4)c3C=C1CC[C@@H]2CN(CCc1ccccn1)S(=O)(=O)Cc1cccnc1 [Example 1] ; param system: glucocorticoid receptor (Homo sapiens, UniProt P04150); output Ki: 1.8
